Answer each item with its documented differential drug sensitivity score.
System: CDS-ZH002 direct (CIC-DUX4 sarcoma cells right after isolation)
Assay: differential drug sensitivity score (dDSS) relative to sarcoma reference cohort mean DSS (DSS units (0-100 scale difference)); higher = more selective sensitivity than reference sarcomas
Conditions: exposure time: 72 h; concentration range: 10-10000 nM

Considering `O=C(NCC1CCOCC1)c1cnc(Nc2ccc(Cl)cc2Cl)nc1C(F)(F)F` , its differential drug sensitivity score with CDS-ZH002 direct was recorded as -0.5

Readout differential drug sensitivity score for `S=c1[nH]cnc2nc[nH]c12` , test system CDS-ZH002 direct, was -1.8

Item `CCCCN(Cc1ccc(C(=O)NO)cc1)C(=O)Nc1ccccc1` ; assay system CDS-ZH002 direct; differential drug sensitivity score reported as 2.4

Let me check: `CO[C@H]1C[C@@H]2CC[C@@H](C)[C@@](O)(O2)C(=O)C(=O)N2CCCC[C@H]2C(=O)O[C@H]([C@H](C)C[C@@H]2CC[C@@H](OCCO)[C@H](OC)C2)CC(=O)[C@H](C)/C=C(\C)[C@@H](O)[C@@H](OC)C(=O)[C@H](C)C[C@H](C)/C=C/C=C/C=C/1C` , system CDS-ZH002 direct, measured differential drug sensitivity score is -6.4

Fill in: CDS-ZH002 direct differential drug sensitivity score for `O=c1cc(N2CCOCC2)oc2c(-c3cccc4c3sc3ccccc34)cccc12` = 1.5

Field differential drug sensitivity score (CDS-ZH002 direct), entry `CCn1c(-c2nonc2N)nc2cnc(Oc3cccc(NC(=O)c4ccc(OCCN5CCOCC5)cc4)c3)cc21` : -2.4

Measured on CDS-ZH002 direct, `N#CC[C@H](C1CCCC1)n1cc(-c2ncnc3[nH]ccc23)cn1` has a documented differential drug sensitivity score of -0.8

So the reported differential drug sensitivity score for `Nc1ncc(-c2nc(N3CCOCC3)nc(N3CCOCC3)n2)c(C(F)F)n1` , on CDS-ZH002 direct, turned out to be -2.6

Query `Nc1ncn([C@H]2C[C@H](O)[C@@H](CO)O2)c(=O)n1` on CDS-ZH002 direct; differential drug sensitivity score returned: 2.2

====

Tested on: CDS-ZH002 direct
Test: differential drug sensitivity score (dDSS) relative to sarcoma reference cohort mean DSS (DSS units (0-100 scale difference)); higher = more selective sensitivity than reference sarcomas
Details: exposure time: 72 h; concentration range: 10-10000 nM
reported-property: differential drug sensitivity score
Give the figure by itself; no unit, no explanation.

Short answer for `CC(=O)O[C@H]1C(=O)[C@@]2(C)[C@H]([C@H](OC(=O)c3ccccc3)[C@]3(O)C[C@H](OC(=O)[C@H](O)[C@@H](NC(=O)c4ccccc4)c4ccccc4)C(C)=C1C3(C)C)[C@]1(OC(C)=O)CO[C@@H]1C[C@@H]2O` : differential drug sensitivity score was -5.6

differential drug sensitivity score measured on Cn1nnc2c(C(N)=O)ncn2c1=O [Temozolomide] = 1.1

differential drug sensitivity score recorded for this compound, `Cc1ccc(F)c(NC(=O)Nc2ccc(-c3cccc4[nH]nc(N)c34)cc2)c1` , is 1.4

The reported value for `COc1ncc(-c2ccc3nccc(-c4ccnnc4)c3c2)cc1NS(=O)(=O)c1ccc(F)cc1F` in terms of differential drug sensitivity score is -3.7

The compound listed as CN(Cc1cnc2nc(N)nc(N)c2n1)c1ccc(C(=O)N[C@@H](CCC(=O)O)C(=O)O)cc1 [Methotrexate] shows differential drug sensitivity score equal to -10.4

Quick note, differential drug sensitivity score for `CN(C)Cc1c(C(=O)NCCOc2ccc(C(=O)NO)cc2)oc2ccccc12` landed at -0.7

Summary for this compound, `CN(NC(=O)CC(=O)NN(C)C(=S)c1ccccc1)C(=S)c1ccccc1` : differential drug sensitivity score is -6

The reported differential drug sensitivity score of the compound `CCc1nc(C(N)=O)c(Nc2ccc(N3CCC(N4CCN(C)CC4)CC3)c(OC)c2)nc1NC1CCOCC1` was 1.6

Input `Oc1nc(-c2ccc(C(F)(F)F)cc2)nc2c1CSCC2` . Output differential drug sensitivity score: 4.3

Note to self: differential drug sensitivity score recorded for `Nc1nc(Cl)nc2c1ncn2[C@@H]1O[C@H](CO)[C@@H](O)[C@@H]1F` was -4.3

The compound listed as `Cc1nc(Nc2ncc(C(=O)Nc3c(C)cccc3Cl)s2)cc(N2CCN(CCO)CC2)n1` shows differential drug sensitivity score equal to 8.9

For this compound ( `N[C@@H](Cc1ccc(N(CCCl)CCCl)cc1)C(=O)O` ), measured differential drug sensitivity score is -1.7

The measured differential drug sensitivity score associated with `CC[C@H](NC(=O)[C@H](C)NC)C(=O)N1C[C@@H](O)C[C@H]1Cc1c(-c2[nH]c3cc(F)ccc3c2C[C@@H]2C[C@H](O)CN2C(=O)[C@H](CC)NC(=O)[C@H](C)NC)[nH]c2cc(F)ccc12` reads 4.6

The compound identified as NC(=O)C1CCCc2c1[nH]c1ccc(Cl)cc21 (stereo unspecified) registered its differential drug sensitivity score at -1.4

Given item `CCc1cncnc1N1CCN(Cc2nc3ccc(C(F)(F)F)cc3[nH]2)CC1` , the value recorded as its differential drug sensitivity score is -2.4

The recorded differential drug sensitivity score for COc1cc2nccc(Oc3ccc(NC(=O)C4(C(=O)Nc5ccc(F)cc5)CC4)cc3)c2cc1OC [Cabozantinib] is -2
